system: dog SMAD7 mRNA; experiment: Pharmacology: dog SMAD7 mRNA expression in liver, kidney, duodenum, ileum and colon after subcutaneous administration in beagle dogs (Example 8); assay type: in vivo; conditions: 30 mg/kg subcutaneous, necropsy, distal colon, normalized to HPRT1
Parameter: % inhibition of SMAD7 mRNA expression (compared to control), Distal colon. Scope: all listed entries.
Please answer using the number first and the unit second.

Some substances with known % inhibition of SMAD7 mRNA expression (compared to control), Distal colon results, for comparison:
substance="829994 (GGAGGCAGGGCCGCGA; 3-10-3 cEt gapmer, further chemistry not given here) [compound 829994]" endpoint_value=29%
substance="830121 (AGAATCAAGCCCTGGC; 3-10-3 cEt gapmer, further chemistry not given here) [compound 830121]" endpoint_value=21%
substance="790615 (CCAATGAGAATGCTTC; 3-10-3 cEt gapmer, further chemistry not given here) [compound 790615]" endpoint_value=31%
substance="830025 (antisense TTTGTAAATCGAAAGC; 3-10-3 cEt gapmer, further chemistry not given here) [compound 830025]" endpoint_value=3%
substance="830037 (antisense CTATTGGCTGATCTGG; 3-10-3 cEt gapmer, further chemistry not given here) [compound 830037]" endpoint_value=22%

Problem: Query (substance): 798781 (CGTAAGATTCACAGCA; 3-10-3 cEt gapmer, further chemistry not given here) [compound 798781] ; field requested: % inhibition of SMAD7 mRNA expression (compared to control), Distal colon
Result: 34%

====

Parameter: % Inhibition. Scope: all listed entries.
tested on: human SMAD7 mRNA; experiment: Antisense inhibition of human SMAD7 mRNA expression in Hep3B cells by 5-10-5 MOE gapmers, single concentration, electroporation, RT-PCR (Example 1, Study 1 and 2); type: cell-based; settings: Study 2, electroporation with 15,000 nM antisense oligonucleotide, 5-10-5 MOE gapmers targeting SEQ ID NO: 1 and 2
Strand notation (5' to 3'): a small letter for the sugar, then the base; units joined by * are phosphorothioate-linked, units joined directly phosphodiester-linked; [ ] holds rarer units or linkages, { } end groups; capitals alone tell only the bases. e = 2'-O-(2-methoxyethyl) (MOE); [5mC] = 5-methylcytosine; d = 2'-deoxy (DNA)
Express the result in % but write the number alone.

Some substances with known % Inhibition results, for comparison:
substance="771377 (antisense eT*eA*eA*eG*e[5mC]*dA*d[5mC]*dG*d[5mC]*dT*d[5mC]*dT*dA*dA*dA*e[5mC]*eA*eG*e[5mC]*eA) [compound 771377]" endpoint_value=0
substance="771795 (antisense e[5mC]*eG*eT*e[5mC]*eT*dG*d[5mC]*dG*dG*d[5mC]*dA*dA*dA*dA*d[5mC]*e[5mC]*e[5mC]*eA*e[5mC]*e[5mC]) [compound 771795]" endpoint_value=59
substance="771798 (antisense eG*eA*e[5mC]*eA*e[5mC]*dA*dT*d[5mC]*d[5mC]*dA*dT*dG*dT*d[5mC]*d[5mC]*eA*eA*eG*e[5mC]*eA) [compound 771798]" endpoint_value=17
substance="771918 (antisense eA*eA*eG*eG*e[5mC]*d[5mC]*dA*d[5mC]*dA*dT*dT*dT*dT*dA*dG*eG*eT*eT*eA*eA) [compound 771918]" endpoint_value=12
substance="771445 (eA*e[5mC]*eA*eG*e[5mC]*d[5mC]*dT*d[5mC]*dT*dT*dG*dA*d[5mC]*dT*dT*e[5mC]*e[5mC]*eG*eA*eG; antisense) [compound 771445]" endpoint_value=10

Problem: Query (substance): 771707 (antisense eT*eT*eG*eT*eT*d[5mC]*d[5mC]*dT*d[5mC]*dT*dG*d[5mC]*dA*d[5mC]*d[5mC]*e[5mC]*eT*eG*eG*eG) [compound 771707] ; field requested: % Inhibition
Result: 42

Problem: Query (substance): 771432 (e[5mC]*eA*eG*eT*eT*dT*d[5mC]*dT*dT*dG*dA*dG*d[5mC]*dA*d[5mC]*e[5mC]*eG*eA*eG*eT; antisense) [compound 771432] ; field requested: % Inhibition
Result: 28

====

Parameter: IC50. Scope: all listed entries.
tested on: human SMAD7 mRNA; experiment: Dose-dependent inhibition of human SMAD7 mRNA expression in Hep3B cells (Example 3, Study 1 and 2); assay type: cell-based; conditions: electroporation, Study 2 (740-20000 nM)
Strand notation (5' to 3'): a small letter for the sugar, then the base; units joined by * are phosphorothioate-linked, units joined directly phosphodiester-linked; [ ] holds rarer units or linkages, { } end groups; capitals alone tell only the bases. k = constrained ethyl (cEt); [5mC] = 5-methylcytosine; d = 2'-deoxy (DNA)
Express the result in µM but write the number alone.

Some substances with known IC50 results, for comparison:
substance="830037 (antisense CTATTGGCTGATCTGG; 3-10-3 cEt gapmer, further chemistry not given here) [compound 830037]" endpoint_value=3
substance="799608 (kA*k[5mC]*kG*dA*dT*d[5mC]*dA*dA*d[5mC]*dT*dT*d[5mC]*dT*kT*kG*kA; antisense) [compound 799608]" endpoint_value=3
substance="799689 (antisense kT*kG*k[5mC]*dT*dA*d[5mC]*dA*dG*dT*dG*dT*d[5mC]*dA*k[5mC]*k[5mC]*kA) [compound 799689]" endpoint_value=5

Problem: Query (substance): 799568 (k[5mC]*kA*kT*dT*dA*dG*dA*dA*dG*d[5mC]*dT*dT*dT*kG*kA*kG; antisense) [compound 799568] ; field requested: IC50
Result: 6

Problem: Query (substance): 799486 (antisense k[5mC]*kA*kT*dA*dA*dT*dG*dA*d[5mC]*dT*dT*dA*dT*k[5mC]*k[5mC]*kA) [compound 799486] ; field requested: IC50
Result: 11

Problem: Query (substance): 800025 (kA*kG*kT*dA*d[5mC]*dA*dA*dG*dG*dA*d[5mC]*dT*dA*kA*kG*kG; antisense) [compound 800025] ; field requested: IC50
Result: 6

====

system: human SMAD7 mRNA; assay: Dose-dependent inhibition of human SMAD7 mRNA expression in Hep3B cells (Example 3, Study 1 and 2); assay type: cell-based; conditions: 312.5 nM, electroporation, approximately 16 hours, Study 1, relative to untreated control cells
Strand notation (5' to 3'): a small letter for the sugar, then the base; units joined by * are phosphorothioate-linked, units joined directly phosphodiester-linked; [ ] holds rarer units or linkages, { } end groups; capitals alone tell only the bases. e = 2'-O-(2-methoxyethyl) (MOE); [5mC] = 5-methylcytosine; d = 2'-deoxy (DNA)
outcome-measure: % inhibition of SMAD7 mRNA expression
Please answer using the number first and the unit second.

Some substances with known % inhibition of SMAD7 mRNA expression results, for comparison:
substance="771552 (antisense e[5mC]*eT*eT*eG*eG*dA*dT*dT*dT*d[5mC]*dT*dG*d[5mC]*dT*dT*e[5mC]*e[5mC]*e[5mC]*e[5mC]*eT) [compound 771552]" outcome_measure="% inhibition of SMAD7 mRNA expression" endpoint_value=2%
substance="771776 (antisense e[5mC]*eT*e[5mC]*eA*eG*d[5mC]*dA*dA*dG*d[5mC]*dT*d[5mC]*dA*dG*dT*eT*e[5mC]*e[5mC]*eT*eG) [compound 771776]" outcome_measure="% inhibition of SMAD7 mRNA expression" endpoint_value=10%
substance="771902 (antisense eG*eG*eG*eT*eT*d[5mC]*dT*d[5mC]*d[5mC]*dA*dG*d[5mC]*d[5mC]*dG*d[5mC]*eT*e[5mC]*eA*eG*eA) [compound 771902]" outcome_measure="% inhibition of SMAD7 mRNA expression" endpoint_value=0%
substance="771705 (antisense eA*eA*eT*eG*e[5mC]*d[5mC]*d[5mC]*dT*dT*dT*dG*dA*dG*dT*dT*eT*e[5mC]*e[5mC]*e[5mC]*e[5mC]) [compound 771705]" outcome_measure="% inhibition of SMAD7 mRNA expression" endpoint_value=0%

Problem: Query (substance): 771464 (antisense eG*eA*eG*eA*eG*dG*dG*d[5mC]*dT*d[5mC]*d[5mC]*dT*dG*dG*dA*e[5mC]*eA*e[5mC]*eA*eG) [compound 771464] ; field requested: % inhibition of SMAD7 mRNA expression
Result: 11%

====

system: human SMAD7 mRNA; test: Antisense inhibition of human SMAD7 mRNA expression in Hep3B cells by 3-10-3 cEt gapmers, 10,000 nM, electroporation (Example 2); format: cell-based; conditions: Hep3B cells, 10,000 nM antisense oligonucleotide, electroporation, approximately 24 hours, RT-PCR primer probe set RTS5062, relative to untreated control cells
Strand notation (5' to 3'): a small letter for the sugar, then the base; units joined by * are phosphorothioate-linked, units joined directly phosphodiester-linked; [ ] holds rarer units or linkages, { } end groups; capitals alone tell only the bases. k = constrained ethyl (cEt); [5mC] = 5-methylcytosine; d = 2'-deoxy (DNA)
outcome-measure: % Inhibition
Please answer using the number first and the unit second.

Some substances with known % Inhibition results, for comparison:
substance="799877 (kA*k[5mC]*kT*dT*dT*dA*d[5mC]*dA*dA*d[5mC]*d[5mC]*d[5mC]*dA*kA*kT*kA; antisense) [compound 799877]" measured_target="human SMAD7 mRNA" endpoint_value=52%
substance="798860 (kT*kG*kG*d[5mC]*dG*dG*dA*d[5mC]*dT*dT*dG*dA*dT*kG*kA*kA; antisense) [compound 798860]" measured_target="human SMAD7 mRNA" endpoint_value=22%
substance="800038 (kT*kG*k[5mC]*dT*d[5mC]*d[5mC]*dT*d[5mC]*d[5mC]*d[5mC]*dT*d[5mC]*dG*k[5mC]*kT*kG; antisense) [compound 800038]" measured_target="human SMAD7 mRNA" endpoint_value=2%
substance="800035 (k[5mC]*kA*kA*dA*dG*dG*d[5mC]*d[5mC]*d[5mC]*d[5mC]*dT*d[5mC]*dG*kA*kA*k[5mC]; antisense) [compound 800035]" measured_target="human SMAD7 mRNA" endpoint_value=34%
substance="799854 (kG*k[5mC]*k[5mC]*dA*dA*dG*dT*dG*dT*d[5mC]*d[5mC]*dA*dT*k[5mC]*kA*kA; antisense) [compound 799854]" measured_target="human SMAD7 mRNA" endpoint_value=45%

Problem: Query (substance): 800016 (kG*kT*kT*d[5mC]*dA*dT*dT*dT*dT*dA*dA*dA*dG*k[5mC]*kA*kT; antisense) [compound 800016] ; field requested: % Inhibition
Result: 32%

Problem: Query (substance): 790507 (kA*kA*kG*dA*dA*dG*dT*dT*dG*dG*dG*dA*dA*kT*k[5mC]*kT; antisense) [compound 790507] ; field requested: % Inhibition
Result: 0%

Problem: Query (substance): 799978 (k[5mC]*kT*k[5mC]*d[5mC]*dA*d[5mC]*dA*dA*d[5mC]*dG*dG*dA*d[5mC]*kA*kT*k[5mC]; antisense) [compound 799978] ; field requested: % Inhibition
Result: 24%

Problem: Query (substance): 798929 (antisense kT*kA*kT*dT*dA*dG*d[5mC]*dA*dG*d[5mC]*dA*dA*dA*kG*kT*kA) [compound 798929] ; field requested: % Inhibition
Result: 41%

Problem: Query (substance): 800077 (antisense k[5mC]*k[5mC]*kT*dT*dA*dA*d[5mC]*dA*dA*dA*dG*d[5mC]*dT*kT*k[5mC]*k[5mC]) [compound 800077] ; field requested: % Inhibition
Result: 36%

Problem: Query (substance): 799857 (kA*kG*kA*dA*d[5mC]*dT*dG*dA*dA*dA*dG*d[5mC]*dG*kG*k[5mC]*kG; antisense) [compound 799857] ; field requested: % Inhibition
Result: 31%

Problem: Query (substance): 798895 (kT*kG*kT*dA*dG*d[5mC]*dA*d[5mC]*dT*dG*dG*d[5mC]*d[5mC]*k[5mC]*k[5mC]*kA; antisense) [compound 798895] ; field requested: % Inhibition
Result: 53%
